Cited source: patent US8063099B2

# systemUnderTest: human orexin-2 receptor (Homo sapiens, UniProt O43614)
# Construct: expressed in transfected cells; host or cells: Chinese hamster ovary (CHO) cells, G418 selection
# Sequence (O43614 1-444): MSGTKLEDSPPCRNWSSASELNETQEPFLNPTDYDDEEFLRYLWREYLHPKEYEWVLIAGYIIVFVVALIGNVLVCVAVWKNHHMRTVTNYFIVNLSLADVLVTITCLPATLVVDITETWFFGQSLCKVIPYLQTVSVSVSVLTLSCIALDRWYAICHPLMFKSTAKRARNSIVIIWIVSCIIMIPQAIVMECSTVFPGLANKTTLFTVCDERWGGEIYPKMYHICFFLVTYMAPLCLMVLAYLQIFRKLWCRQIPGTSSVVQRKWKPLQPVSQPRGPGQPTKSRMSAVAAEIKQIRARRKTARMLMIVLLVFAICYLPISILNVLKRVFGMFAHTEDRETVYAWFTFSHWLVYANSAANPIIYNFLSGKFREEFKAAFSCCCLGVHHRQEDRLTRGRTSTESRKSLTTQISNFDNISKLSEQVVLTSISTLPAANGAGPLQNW
# assayProtocol: Intracellular calcium measurements (FLIPR), orexin receptor antagonistic activity
# Format: cell-based
# conditionsUsed: FLIPR2; CHO cells expressing human orexin-2 receptor; 3 nM orexin-A; read-out: OX2 IC50
# Experimental: The orexin receptor antagonistic activity of the compounds of formula (I) is determined in accordance with one of the following experimental methods. Intracellular Calcium Measurements: […] Within the Fluorescent Imaging Plate Reader (FLIPR2 or FLIPR Tetra, Molecular Devices), antagonists are added to the plate in a volume of 10 μl/well, incubated for 10 min and finally 10 μl/well of agonist is added. […]
measurementKind: IC50 (nM)

Solved cases below.
O=C(NC[C@@H]1[C@H]2C[C@H]2CN1C(=O)c1ccccc1-c1ccccc1)c1cccc2occc12 = 102
Cc1nc2sccn2c1C(=O)NC[C@@H]1[C@H]2C[C@H]2CN1C(=O)c1ccccc1-c1ccccc1F = 174
Cc1nc(C(=O)N2C[C@@H]3C[C@@H]3[C@H]2CNC(=O)c2c(C)nc3sccn23)c(-c2ccccc2C)s1 = 66
Cn1nc(C(=O)NC[C@@H]2[C@H]3C[C@H]3CN2C(=O)c2nc(N)sc2-c2cccc(F)c2)c2ccccc21 = 8
Cc1nc2sccn2c1C(=O)NC[C@@H]1[C@H]2C[C@H]2CN1C(=O)c1ccccc1-c1csc(N)n1 = 647
Cc1cccc(-c2sc(C)nc2C(=O)N2C[C@@H]3C[C@@H]3[C@H]2CNC(=O)c2cccc3ccccc23)c1 = 228

(a) Cc1c(C(=O)NC[C@@H]2[C@H]3C[C@H]3CN2C(=O)c2nc(N)sc2-c2cccc(F)c2)sc2nccn12
(b) Cc1cccc(-c2sc(C)nc2C(=O)N2C[C@@H]3C[C@@H]3[C@H]2CNC(=O)c2cccc3c2OC(C)(C)C3)c1
(c) Cc1nc2sccn2c1C(=O)NC[C@@H]1[C@H]2C[C@H]2CN1C(=O)c1ccccc1C1CCCCC1
(d) Cc1cccc(-c2sc(C)nc2C(=O)N2C[C@@H]3C[C@@H]3[C@H]2CNC(=O)c2cccc3c2N(C)CCO3)c1
(e) Cc1cccc(-c2sc(C)nc2C(=O)N2C[C@@H]3C[C@@H]3[C@H]2CNC(=O)c2c(C)noc2C)c1
Req: Ordering: ascending IC50. Response format: the labels, sorted as the prompt asks.
Resp: a, b, e, d, c
(a: 12 nM, b: 19 nM, e: 41 nM, d: 88 nM, c: 167 nM)

(a) Cc1cccc(-c2sc(C)nc2C(=O)N2C[C@@H]3C[C@@H]3[C@H]2CNC(=O)c2nccc3ccccc23)c1
(b) Nc1nc(C(=O)N2C[C@@H]3C[C@@H]3[C@H]2CNC(=O)c2cnc3ccccn23)c(-c2cccc(F)c2)s1
Req: Which value of IC50 is greater, the one for a or the one for b ? Answer with the label corresponding to your selection.
Resp: b
